details: 333.15 K; 10000 kPa; Liquid
MEASURED PROPERTY: mass density (kg/m3)
Numbers only here, please. The scale is kg/m3.

Reported mass density for CCCCOC(C)=O [butyl ethanoate] : what is it? 850

Reported mass density for CCOC(C)=O [ethyl acetate] : what is it? 862.9

Reported mass density for CCCCCOC(C)=O [pentyl ethanoate] : what is it? 847.4

Reported mass density for CCCOC(C)=O [propyl ethanoate] : what is it? 853.9

###

conditions: 328.15 K; 3000 kPa; Liquid
MEASURED PROPERTY: mass density (kg/m3)
Numbers only here, please. The scale is kg/m3.

Reported mass density for CCCCOC(C)=O [butyl ethanoate] : what is it? 847.9

Reported mass density for CCCCCOC(C)=O [pentyl ethanoate] : what is it? 845.5

Reported mass density for CCOC(C)=O [ethyl acetate] : what is it? 860.5

Reported mass density for CCCOC(C)=O [propyl ethanoate] : what is it? 851
